# tgt: T1, PSMA Fab
# T1 construct: also called Anti-PSMA Fab; 006 PSMA Fab
# assayNotes: clonal phage ELISA on captured PSMA Fab, wells pre-incubated with PSMA antigen as competitor
measuredParameter: phage binding ELISA signal
// no unit, no text: just the number

-- ask Quick check: phage binding ELISA signal of IEKQCVPQWMCDGF (tested as crude phage supernatant) [Phage-3880] ?
-- reply 0.0745

-- ask Quick check: phage binding ELISA signal of STMLCSPSWMCFGF (tested as crude phage supernatant) [Phage-3872] ?
-- reply 0.073

-- ask Quick check: phage binding ELISA signal of PQIKCIPAWMCDGF (tested as crude phage supernatant) [Phage-3875] ?
-- reply 0.0851

-- ask Quick check: phage binding ELISA signal of VTPACMPRWMCEGF (tested as crude phage supernatant) [Phage-3879] ?
-- reply 0.0611

-- ask Quick check: phage binding ELISA signal of YDRLCSPPWMCSGF (tested as crude phage supernatant) [Phage-3874] ?
-- reply 0.0629

-- ask Quick check: phage binding ELISA signal of VDYVCRPSWMCSGI (tested as crude phage supernatant; The number 3883 of the label stands in r4366) [Phage-3883] ?
-- reply 0.0618

-- ask Quick check: phage binding ELISA signal of ESKLCIPDWMCILL (tested as crude phage supernatant) [Phage-3881] ?
-- reply 0.0662

-- ask Quick check: phage binding ELISA signal of AVIMCEPSWMCEGF (tested as crude phage supernatant) [Phage-3870] ?
-- reply 0.102

-- ask Quick check: phage binding ELISA signal of MDVWCVPQWMCDGF (tested as crude phage supernatant) [Phage-3882] ?
-- reply 0.0645

-- ask Quick check: phage binding ELISA signal of EDALCVPQWMCSGF (tested as crude phage supernatant) [Phage-3877] ?
-- reply 0.0648

-- ask Quick check: phage binding ELISA signal of SNVMCRPSWMCAGF (tested as crude phage supernatant) [Phage-3876] ?
-- reply 0.132

-- ask Quick check: phage binding ELISA signal of EGILCKPSWMCNDF (tested as crude phage supernatant) [Phage-3871] ?
-- reply 0.0803

-- ask Quick check: phage binding ELISA signal of TAPMCNPPWMCYGL (tested as crude phage supernatant) [Phage-3878] ?
-- reply 0.0701

-- ask Quick check: phage binding ELISA signal of LQQLCVPNWMCVGF (tested as crude phage supernatant) [Phage-3873] ?
-- reply 0.0902
